- TARGET_OR_TEST_SYSTEM: Nuclear factor NF-kappa-B complex (Homo sapiens) (UniProt Q00653+P19838+Q04206)
- Sequence (P19838 whole entry, looked up): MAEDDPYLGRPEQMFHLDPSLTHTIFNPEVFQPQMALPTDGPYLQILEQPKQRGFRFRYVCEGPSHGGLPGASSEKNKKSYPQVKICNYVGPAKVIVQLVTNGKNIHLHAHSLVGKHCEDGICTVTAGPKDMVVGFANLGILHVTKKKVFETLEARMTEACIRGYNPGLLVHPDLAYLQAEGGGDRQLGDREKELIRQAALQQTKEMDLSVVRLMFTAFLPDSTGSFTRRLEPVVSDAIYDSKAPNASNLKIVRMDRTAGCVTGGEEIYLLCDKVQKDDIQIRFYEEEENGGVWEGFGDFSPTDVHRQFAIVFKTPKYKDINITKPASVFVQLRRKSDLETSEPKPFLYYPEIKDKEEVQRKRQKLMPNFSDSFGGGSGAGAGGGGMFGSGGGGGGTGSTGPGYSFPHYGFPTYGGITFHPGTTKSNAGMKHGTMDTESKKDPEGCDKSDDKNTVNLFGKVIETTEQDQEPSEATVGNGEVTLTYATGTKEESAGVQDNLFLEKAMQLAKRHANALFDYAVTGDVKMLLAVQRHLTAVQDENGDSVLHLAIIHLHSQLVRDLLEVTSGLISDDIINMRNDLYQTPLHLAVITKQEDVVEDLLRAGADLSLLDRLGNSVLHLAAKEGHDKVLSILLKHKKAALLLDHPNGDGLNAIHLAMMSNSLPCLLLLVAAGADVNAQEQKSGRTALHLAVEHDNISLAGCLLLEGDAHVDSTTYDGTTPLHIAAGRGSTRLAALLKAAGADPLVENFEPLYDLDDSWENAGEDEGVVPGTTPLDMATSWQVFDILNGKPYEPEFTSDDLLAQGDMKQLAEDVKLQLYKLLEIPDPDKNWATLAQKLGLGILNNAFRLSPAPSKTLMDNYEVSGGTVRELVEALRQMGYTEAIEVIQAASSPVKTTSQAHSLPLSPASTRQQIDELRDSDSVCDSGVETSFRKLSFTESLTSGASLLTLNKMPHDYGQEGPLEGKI
- Sequence (Q00653 whole entry, looked up): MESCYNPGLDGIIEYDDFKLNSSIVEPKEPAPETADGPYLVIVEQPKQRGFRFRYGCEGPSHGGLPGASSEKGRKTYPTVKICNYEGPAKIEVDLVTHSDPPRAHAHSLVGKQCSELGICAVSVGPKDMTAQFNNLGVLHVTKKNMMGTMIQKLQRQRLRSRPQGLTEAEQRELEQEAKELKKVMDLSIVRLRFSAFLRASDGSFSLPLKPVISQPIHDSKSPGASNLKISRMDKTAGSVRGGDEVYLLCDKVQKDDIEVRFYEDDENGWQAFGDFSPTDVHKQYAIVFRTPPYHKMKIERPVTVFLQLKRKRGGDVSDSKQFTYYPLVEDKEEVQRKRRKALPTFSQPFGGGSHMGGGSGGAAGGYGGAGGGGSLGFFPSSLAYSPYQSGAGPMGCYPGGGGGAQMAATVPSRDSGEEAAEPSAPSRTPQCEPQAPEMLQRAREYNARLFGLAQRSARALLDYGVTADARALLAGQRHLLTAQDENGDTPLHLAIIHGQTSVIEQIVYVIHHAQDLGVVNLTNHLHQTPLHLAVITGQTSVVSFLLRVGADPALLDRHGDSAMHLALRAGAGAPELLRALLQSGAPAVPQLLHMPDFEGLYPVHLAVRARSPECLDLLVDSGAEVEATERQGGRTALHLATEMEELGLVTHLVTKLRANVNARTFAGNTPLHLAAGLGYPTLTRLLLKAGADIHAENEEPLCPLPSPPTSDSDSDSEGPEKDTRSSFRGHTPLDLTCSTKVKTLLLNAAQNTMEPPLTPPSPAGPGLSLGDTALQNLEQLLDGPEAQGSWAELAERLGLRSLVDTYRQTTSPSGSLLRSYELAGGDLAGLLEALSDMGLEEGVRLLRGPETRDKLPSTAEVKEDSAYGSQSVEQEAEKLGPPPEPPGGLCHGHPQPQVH
- Sequence (Q04206 whole entry, looked up): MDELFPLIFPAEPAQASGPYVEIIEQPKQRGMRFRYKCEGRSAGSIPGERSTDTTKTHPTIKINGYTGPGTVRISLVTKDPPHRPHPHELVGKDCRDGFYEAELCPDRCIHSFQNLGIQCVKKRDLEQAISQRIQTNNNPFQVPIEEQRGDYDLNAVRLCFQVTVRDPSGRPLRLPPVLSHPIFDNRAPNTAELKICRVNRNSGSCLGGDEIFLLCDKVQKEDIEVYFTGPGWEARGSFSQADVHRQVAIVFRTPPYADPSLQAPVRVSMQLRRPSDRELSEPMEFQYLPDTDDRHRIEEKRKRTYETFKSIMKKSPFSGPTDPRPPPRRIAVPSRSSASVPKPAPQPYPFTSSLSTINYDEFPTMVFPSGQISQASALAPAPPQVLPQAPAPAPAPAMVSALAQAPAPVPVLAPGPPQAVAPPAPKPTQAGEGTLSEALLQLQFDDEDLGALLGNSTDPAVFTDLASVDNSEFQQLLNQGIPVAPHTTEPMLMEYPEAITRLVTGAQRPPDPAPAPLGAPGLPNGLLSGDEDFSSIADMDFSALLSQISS
- ASSAY_DETAILS: Inhibition of IFN-gamma/histamine-induced NF-kappaB activation in human NCTC-2544 cells assessed as inhibition of nuclear translocation at 10 to 20 uM after 48 hrs by Western blot analysis
- Type: cell-based
Activity calls are given as the source filed them. No cut-off for these calls is given here.
Hi! Could you answer with just one of these? active, inactive

Please review the entries below; each comes with its answer.
SMILES_CODE: NC(=O)COc1cccc(/C=C2\SC(=S)NC2=O)c1
CLASS_ASSIGNMENT: inactive
--
SMILES_CODE: NC(=O)COc1cccc(/C=C2\SC(=S)N(CC(=O)O)C2=O)c1
CLASS_ASSIGNMENT: active
--
SMILES_CODE: COc1ccc(/C=C2\SC(=S)N(CC(=O)O)C2=O)cc1OCC(N)=O
CLASS_ASSIGNMENT: active
--
SMILES_CODE: COc1ccc(/C=C2\SC(=S)NC2=O)cc1OCC(N)=O
CLASS_ASSIGNMENT: inactive

Which result was noted for this compound in the test: `COc1cc(/C=C2\SC(=S)N(CC(=O)O)C2=O)ccc1OCC(N)=O`
active

* * *

- TARGET_OR_TEST_SYSTEM: UniProt P16116
pIC50: −log10 of the molar value.
Tick 1 (yes) if pIC50 is 5 or greater. Tick 0 (no) if pIC50 is less than 5.

API: above_or_equal(metric=pIC50, cutoff=5) for item `COc1cc(/C=C2\SC(=O)N(CC(=O)O)C2=O)ccc1OCC(N)=O`
1 (yes)

API: above_or_equal(metric=pIC50, cutoff=5) for item `NC(=O)COc1cccc(/C=C2\SC(=O)N(CC(=O)O)C2=O)c1`
1 (yes)

API: above_or_equal(metric=pIC50, cutoff=5) for item `COc1ccc(/C=C2\SC(=O)N(CC(=O)O)C2=O)cc1OCC(N)=O`
1 (yes)

API: above_or_equal(metric=pIC50, cutoff=5) for item `COc1cc(/C=C2\SC(=S)N(CC(=O)O)C2=O)ccc1OCC(N)=O`
1 (yes)

API: above_or_equal(metric=pIC50, cutoff=5) for item `NC(=O)COc1cccc(/C=C2\SC(=O)NC2=O)c1`
0 (no)

API: above_or_equal(metric=pIC50, cutoff=5) for item `COc1ccc(/C=C2\SC(=O)NC2=O)cc1OCC(N)=O`
0 (no)

API: above_or_equal(metric=pIC50, cutoff=5) for item `NC(=O)COc1ccc(/C=C2\SC(=S)N(CC(=O)O)C2=O)cc1`
1 (yes)

API: above_or_equal(metric=pIC50, cutoff=5) for item `COc1cc(/C=C2\SC(=O)NC2=O)ccc1OCC(N)=O`
0 (no)
